Provenance of the data: ChEMBL document CHEMBL1127375

- Test system: HeLa
- methodSummary: Tested for the antiviral activity against Vesicular stomatitis virus in human HeLa cells
- Assay type: functional
measureName: MIC (µg/mL)

>  <compound>
Cc1ccc(S(=O)(=O)/C=C/[C@H]2OC(n3cnc4c(N)ncnc43)[C@H](O)[C@@H]2O)cc1 (stereo partly drawn)

>  <unitOfMeasure>
µg/mL

>  <inequalitySign>
>

>  <recordedMeasurement>
400

$$$$
>  <compound>
Nc1ncnc2c1ncn2[C@@H]1O[C@H](/C=C\I)[C@@H](O)[C@H]1O

>  <unitOfMeasure>
µg/mL

>  <inequalitySign>
=

>  <recordedMeasurement>
7

$$$$
>  <compound>
Nc1ncnc2c1ncn2C1O[C@H](/C=C/I)[C@@H](O)[C@H]1O (stereo partly drawn)

>  <unitOfMeasure>
µg/mL

>  <inequalitySign>
=

>  <recordedMeasurement>
7

$$$$
>  <compound>
Nc1ncnc2c1ncn2C1O[C@H](/C=C/F)[C@@H](O)[C@H]1O (stereo partly drawn)

>  <unitOfMeasure>
µg/mL

>  <inequalitySign>
>

>  <recordedMeasurement>
100

$$$$
>  <compound>
Nc1ncnc2c1ncn2[C@@H]1O[C@H](/C=C\Br)[C@@H](O)[C@H]1O

>  <unitOfMeasure>
µg/mL

>  <inequalitySign>
=

>  <recordedMeasurement>
150

$$$$
>  <compound>
Nc1ncnc2c1ncn2[C@@H]1O[C@H](/C=C/Br)[C@@H](O)[C@H]1O

>  <unitOfMeasure>
µg/mL

>  <inequalitySign>
=

>  <recordedMeasurement>
7

$$$$
>  <compound>
Nc1ncnc2c1ncn2[C@@H]1O[C@H](/C=C/Cl)[C@@H](O)[C@H]1O

>  <unitOfMeasure>
µg/mL

>  <inequalitySign>
>

>  <recordedMeasurement>
200

$$$$
>  <compound>
Nc1ncnc2c1ncn2[C@@H]1O[C@H](/C=C\Cl)[C@@H](O)[C@H]1O

>  <unitOfMeasure>
µg/mL

>  <inequalitySign>
=

>  <recordedMeasurement>
70

$$$$
